Tested on: Mannheimia haemolytica
Test: minimum inhibitory concentration (MIC)
Details: isolate (source animal id): 27
VALUE_TYPE: minimum inhibitory concentration (µg/mL)
Answer with a number only, understood to be in µg/mL.

Please review the entries below; each comes with its answer.
compound="CC1(C)S[C@@H]2[C@H](NC(=O)Cc3ccccc3)C(=O)N2[C@H]1C(=O)O [Penicillin]" recorded_measurement=0.25
compound="CCC[C@@H]1C[C@@H](C(=O)N[C@@H]([C@H]2O[C@H](SC)[C@H](O)[C@@H](O)[C@H]2O)[C@H](C)Cl)N(C)C1 [Clindamycin]" recorded_measurement=16
compound="CN1C[C@@H]2C[C@H]1CN2c1cc2c(cc1F)c(=O)c(C(=O)O)cn2C1CC1 [Danofloxacin]" recorded_measurement=0.25

Let us move to another entry and its minimum inhibitory concentration.
Value of minimum inhibitory concentration reported for the compound CN(C)[C@@H]1C(O)=C(C(N)=O)C(=O)[C@@]2(O)C(O)=C3C(=O)c4c(O)cccc4[C@@](C)(O)[C@H]3C[C@@H]12 [Tetracycline] is 8
